reportedEndpoint: serum modification products (MALDI-TOF-MS) (Da)

{"columns": ["smilesRepresentation", "numericReadout"],
 "data": [
  ["CC[C@H](C)[C@H](NC(=O)[C@H](CCSC)NC(=O)[C@H](CS)NC(=O)[C@H](CCCNC(=N)N)NC(=O)[C@H](Cc1ccc(O)cc1)NC(C)=O)C(=O)N[C@@H](CO)C(=O)N[C@@H](Cc1ccc(O)cc1)C(=O)NCC(=O)NCC(=O)N[C@@H](C)C(=O)N[C@@H](CC(=O)O)C(=O)N[C@@H](Cc1ccc(O)cc1)C(=O)N[C@@H](CCCCN)C(=O)N[C@@H](CCCNC(=N)N)C(=O)N[C@H](C(=O)N[C@H](C(=O)N[C@H](C(N)=O)C(C)C)[C@@H](C)O)[C@@H](C)CC", 119]
]}
